run-parameters: 299.65 K; 101.33 kPa; Liquid; Pulse-echo method
readout-kind: speed of sound (m/s)
Report the figure in m/s without appending any unit label.

Item under review: CCCCC(=O)[O-].C[NH2+]CCO [2-hydroxy-N-methylethanaminium pentanoate] . Reported speed of sound?
1544

Item under review: C[NH2+]CCO.O=C[O-] [2-hydroxy-N-methylethanaminium formate] . Reported speed of sound?
1812.4

Item under review: CCCC(=O)[O-].C[NH2+]CCO [N-methyl-2-hydroxyethylammonium butanoate] . Reported speed of sound?
1609.8

Item under review: CCC(=O)[O-].C[NH2+]CCO [2-hydroxy-N-methylethanaminium propionate] . Reported speed of sound?
1685.5

Item under review: CC(C)C(=O)[O-].C[NH2+]CCO [2-hydroxy-N-methylethanaminium isobutyrate] . Reported speed of sound?
1607.1

* * *

Exercise: state measured mass density for each of the compounds provided.
run-parameters: 325.66 K; 101.33 kPa; Liquid; Vibrating tube method
Report the figure in kg/m3 without appending any unit label.

Item under review: C[NH2+]CCO.O=C[O-] [2-hydroxy-N-methylethanaminium formate] . Reported mass density?
1112.96

Item under review: CCC(=O)[O-].C[NH2+]CCO [2-hydroxy-N-methylethanaminium propionate] . Reported mass density?
1053.13

Item under review: CCCC(=O)[O-].C[NH2+]CCO [N-methyl-2-hydroxyethylammonium butanoate] . Reported mass density?
1020.52

Item under review: CC(C)C(=O)[O-].C[NH2+]CCO [2-hydroxy-N-methylethanaminium isobutyrate] . Reported mass density?
1025.36

Item under review: CC(=O)[O-].C[NH2+]CCO [N-methyl-2-hydroxyethylammonium acetate] . Reported mass density?
1084.06

Item under review: CCCCC(=O)[O-].C[NH2+]CCO [2-hydroxy-N-methylethanaminium pentanoate] . Reported mass density?
997.495

* * *

run-parameters: 286.4 K; 101.33 kPa; Liquid; Pulse-echo method
Exercise: state measured speed of sound for each of the molecules provided.
Report the figure in m/s without appending any unit label.

Item under review: CC(C)C(=O)[O-].C[NH2+]CCO [2-hydroxy-N-methylethanaminium isobutyrate] . Reported speed of sound?
1645.2

Item under review: CCCCC(=O)[O-].C[NH2+]CCO [2-hydroxy-N-methylethanaminium pentanoate] . Reported speed of sound?
1587.1

Item under review: C[NH2+]CCO.O=C[O-] [2-hydroxy-N-methylethanaminium formate] . Reported speed of sound?
1838.4

Item under review: CCC(=O)[O-].C[NH2+]CCO [2-hydroxy-N-methylethanaminium propionate] . Reported speed of sound?
1725.5

Item under review: CCCC(=O)[O-].C[NH2+]CCO [N-methyl-2-hydroxyethylammonium butanoate] . Reported speed of sound?
1653.3

* * *

run-parameters: 294.9 K; 101.33 kPa; Liquid; Pulse-echo method
readout-kind: speed of sound (m/s)
Report the figure in m/s without appending any unit label.

Item under review: CCCC(=O)[O-].C[NH2+]CCO [N-methyl-2-hydroxyethylammonium butanoate] . Reported speed of sound?
1624.9

Item under review: C[NH2+]CCO.O=C[O-] [2-hydroxy-N-methylethanaminium formate] . Reported speed of sound?
1821.7

Item under review: CCCCC(=O)[O-].C[NH2+]CCO [2-hydroxy-N-methylethanaminium pentanoate] . Reported speed of sound?
1559.1

Item under review: CC(C)C(=O)[O-].C[NH2+]CCO [2-hydroxy-N-methylethanaminium isobutyrate] . Reported speed of sound?
1620.5

Item under review: CCC(=O)[O-].C[NH2+]CCO [2-hydroxy-N-methylethanaminium propionate] . Reported speed of sound?
1699.7

* * *

run-parameters: 322.15 K; 101.33 kPa; Liquid; Pulse-echo method
readout-kind: speed of sound (m/s)
Report the figure in m/s without appending any unit label.

Item under review: CCCCC(=O)[O-].C[NH2+]CCO [2-hydroxy-N-methylethanaminium pentanoate] . Reported speed of sound?
1474.6

Item under review: C[NH2+]CCO.O=C[O-] [2-hydroxy-N-methylethanaminium formate] . Reported speed of sound?
1768.6

Item under review: CC(C)C(=O)[O-].C[NH2+]CCO [2-hydroxy-N-methylethanaminium isobutyrate] . Reported speed of sound?
1543.4

Item under review: CCC(=O)[O-].C[NH2+]CCO [2-hydroxy-N-methylethanaminium propionate] . Reported speed of sound?
1618.9

Item under review: CCCC(=O)[O-].C[NH2+]CCO [N-methyl-2-hydroxyethylammonium butanoate] . Reported speed of sound?
1539.3

* * *

Exercise: state measured mass density for each of the molecules provided.
run-parameters: 293.4 K; 101.33 kPa; Liquid; Vibrating tube method
Report the figure in kg/m3 without appending any unit label.

Item under review: CCCC(=O)[O-].C[NH2+]CCO [N-methyl-2-hydroxyethylammonium butanoate] . Reported mass density?
1042.47

Item under review: CCC(=O)[O-].C[NH2+]CCO [2-hydroxy-N-methylethanaminium propionate] . Reported mass density?
1074.34

Item under review: CC(C)C(=O)[O-].C[NH2+]CCO [2-hydroxy-N-methylethanaminium isobutyrate] . Reported mass density?
1046.37

Item under review: CCCCC(=O)[O-].C[NH2+]CCO [2-hydroxy-N-methylethanaminium pentanoate] . Reported mass density?
1019.44

Item under review: CC(=O)[O-].C[NH2+]CCO [N-methyl-2-hydroxyethylammonium acetate] . Reported mass density?
1103.61

Item under review: C[NH2+]CCO.O=C[O-] [2-hydroxy-N-methylethanaminium formate] . Reported mass density?
1130.9

* * *

Exercise: state measured mass density for each of the molecules provided.
run-parameters: 305.65 K; 101.33 kPa; Liquid; Vibrating tube method
Report the figure in kg/m3 without appending any unit label.

Item under review: CCCCC(=O)[O-].C[NH2+]CCO [2-hydroxy-N-methylethanaminium pentanoate] . Reported mass density?
1011.19

Item under review: CCCC(=O)[O-].C[NH2+]CCO [N-methyl-2-hydroxyethylammonium butanoate] . Reported mass density?
1034.21

Item under review: CCC(=O)[O-].C[NH2+]CCO [2-hydroxy-N-methylethanaminium propionate] . Reported mass density?
1066.42

Item under review: CC(C)C(=O)[O-].C[NH2+]CCO [2-hydroxy-N-methylethanaminium isobutyrate] . Reported mass density?
1038.55

Item under review: CC(=O)[O-].C[NH2+]CCO [N-methyl-2-hydroxyethylammonium acetate] . Reported mass density?
1096.34

Item under review: C[NH2+]CCO.O=C[O-] [2-hydroxy-N-methylethanaminium formate] . Reported mass density?
1124.06

* * *

run-parameters: 321.15 K; 101.33 kPa; Liquid; Vibrating tube method
Exercise: state measured mass density for each of the molecules provided.
Report the figure in kg/m3 without appending any unit label.

Item under review: CC(=O)[O-].C[NH2+]CCO [N-methyl-2-hydroxyethylammonium acetate] . Reported mass density?
1086.86

Item under review: CC(C)C(=O)[O-].C[NH2+]CCO [2-hydroxy-N-methylethanaminium isobutyrate] . Reported mass density?
1028.37

Item under review: CCCC(=O)[O-].C[NH2+]CCO [N-methyl-2-hydroxyethylammonium butanoate] . Reported mass density?
1023.65

Item under review: CCCCC(=O)[O-].C[NH2+]CCO [2-hydroxy-N-methylethanaminium pentanoate] . Reported mass density?
1000.62

Item under review: CCC(=O)[O-].C[NH2+]CCO [2-hydroxy-N-methylethanaminium propionate] . Reported mass density?
1056.16

Item under review: C[NH2+]CCO.O=C[O-] [2-hydroxy-N-methylethanaminium formate] . Reported mass density?
1115.44

* * *

run-parameters: 336.16 K; 101.33 kPa; Liquid; Vibrating tube method
Exercise: state measured mass density for each of the compounds provided.
Report the figure in kg/m3 without appending any unit label.

Item under review: C[NH2+]CCO.O=C[O-] [2-hydroxy-N-methylethanaminium formate] . Reported mass density?
1107.42

Item under review: CCCCC(=O)[O-].C[NH2+]CCO [2-hydroxy-N-methylethanaminium pentanoate] . Reported mass density?
990.117

Item under review: CC(=O)[O-].C[NH2+]CCO [N-methyl-2-hydroxyethylammonium acetate] . Reported mass density?
1077.44

Item under review: CCCC(=O)[O-].C[NH2+]CCO [N-methyl-2-hydroxyethylammonium butanoate] . Reported mass density?
1013.12

Item under review: CC(C)C(=O)[O-].C[NH2+]CCO [2-hydroxy-N-methylethanaminium isobutyrate] . Reported mass density?
1018.22

Item under review: CCC(=O)[O-].C[NH2+]CCO [2-hydroxy-N-methylethanaminium propionate] . Reported mass density?
1045.95

* * *

run-parameters: 278.9 K; 101.33 kPa; Liquid; Pulse-echo method
Exercise: state measured speed of sound for each of the compounds provided.
Report the figure in m/s without appending any unit label.

Item under review: CCC(=O)[O-].C[NH2+]CCO [2-hydroxy-N-methylethanaminium propionate] . Reported speed of sound?
1749.8

Item under review: CCCC(=O)[O-].C[NH2+]CCO [N-methyl-2-hydroxyethylammonium butanoate] . Reported speed of sound?
1680.6

Item under review: CCCCC(=O)[O-].C[NH2+]CCO [2-hydroxy-N-methylethanaminium pentanoate] . Reported speed of sound?
1613.8

Item under review: C[NH2+]CCO.O=C[O-] [2-hydroxy-N-methylethanaminium formate] . Reported speed of sound?
1853.2

Item under review: CC(C)C(=O)[O-].C[NH2+]CCO [2-hydroxy-N-methylethanaminium isobutyrate] . Reported speed of sound?
1667.8
